Test system: wheat (Triticum aestivum)
PROCEDURE_DETAILS: Test C preemergence, wheat
Assay type: in vivo
TEST_SETTINGS: 31 g ai/ha Preemergence; 0 is no effect, 100 is complete control
OUTCOME_MEASURE: Plant response rating (0 to 100 scale), Wheat
Give a plain numeric answer without units written out.

Here are 8 compounds together with their reported answers.
compound="Cc1cc(C)c(N(C(=O)OC(C)C)S(=O)(=O)C(F)(F)F)cc1N1CCC(OC2CC2)C1=O (stereo not drawn)" measured=0
compound="Cc1cc(C)c(N2CCC(OCC3CC3)C2=O)cc1NS(=O)(=O)C(F)(F)F (stereo not drawn)" measured=90
compound="Cc1cc(C)c(N2CCC(OCC3CCCC3)C2=O)cc1NS(=O)(=O)C(F)(F)F (stereo not drawn)" measured=20
compound="Cc1c(N2CCC(OC3CC3)C2=O)cc(N(COC(=O)C(C)(C)C)S(=O)(=O)C(F)(F)F)c(C)c1F (stereo not drawn)" measured=10
compound="C#CC(C)OC1CCN(c2cc(NS(=O)(=O)C(F)(F)F)c(C)cc2C)C1=O (stereo not drawn)" measured=90
compound="Cc1c(NS(=O)(=O)C(F)(F)F)cc(N2CCC(OC3CCC3)C2=O)c(C)c1C (stereo not drawn)" measured=60
compound="Cc1cc(C)c(N(COC(=O)C(C)(C)C)S(=O)(=O)C(F)(F)F)cc1N1CCC(OCC2CC2)C1=O (stereo not drawn)" measured=60
compound="Cc1cc(C)c(N2CCC(OC3COC3)C2=O)cc1NS(=O)(=O)C(F)(F)F (stereo not drawn)" measured=30

Moving on to the next compound.
Entry under review: COC(=O)N(c1cc(N2CCC(OC3CC3)C2=O)c(C)cc1Cl)S(=O)(=O)C(F)(F)F (stereo not drawn) . Reported Plant response rating (0 to 100 scale), Wheat?
60
